test-system: WRKY50BD (Arabidopsis thaliana Col-0, UniProt Q8VWQ5 86-173)
Sequence (Q8VWQ5 86-173): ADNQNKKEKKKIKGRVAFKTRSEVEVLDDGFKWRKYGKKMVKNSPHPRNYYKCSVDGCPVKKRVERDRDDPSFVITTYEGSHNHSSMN
method-notes: competition EMSA; 100-fold excess vs S21 probe; EMSA with 4-5 ug recombinant protein, 32P probe, 100-fold molar excess competitor; binding buffer, salt, pH and temperature not given (cites Kanofsky et al. 2018)
condition-info: tags: His tag (pQE-30, Ni purification; tag not spelled out)
parameter-measured: binding result

> print(dat)
                                     binder      result
1  S21mut5 (dsDNA) DNA 1: TTTATGTTTGACTCCCGTCATATAG DNA 2: CTATATGACGGGAGTCAAACATAAA  no binding
2  S21mut2 (dsDNA) DNA 1: TTTATGTTTGACTTTTACTGTATAG DNA 2: CTATACAGTAAAAGTCAAACATAAA       binds
3  S21mut3 (dsDNA) DNA 1: TTTATGTCCAGTATTTACTGTATAG DNA 2: CTATACAGTAAATACTGGACATAAA  no binding
4  S21mut1 (dsDNA) DNA 1: TTTATGTCCAGTATTTGTCATATAG DNA 2: CTATATGACAAATACTGGACATAAA  no binding
5  S21mut4 (dsDNA) DNA 1: TTTATGTTTAGTCCCTGTCATATAG DNA 2: CTATATGACAGGGACTAAACATAAA  no binding
